# experiment.summary: Microsomal stability assay, mouse liver microsomes
# Type: in vitro ADME
# assay.conditions: 37°C, NADPH regenerating system, read-out: T1/2 MLM
outcome.measure: half-life (min)
Dear colleague, please return just the value in min, with no unit written.

Ask: Which measured half-life value corresponds to CCC1(CC)CC(CCN2CCN(c3ccc(O)cc3)CC2)OC1=O (stereo not shown) ?
Reply: 17

###

# experiment.summary: Plasma protein binding by equilibrium dialysis
# Type: in vitro ADME
# assay.conditions: mouse
outcome.measure: fraction unbound at 22 h
Please give the numeric answer without any surrounding text.

Ask: Which measured fraction unbound at 22 h value corresponds to CCC1(CC)CC(CCN2CCN(c3ccc(O)cc3)CC2)OC1=O (stereo not shown) [MC-170073] ?
Reply: 0.6
